Item-by-item account of IC50
# System under test: UniProt:P42680
# Assay comment: Inhibition of a panel of kinases, in vitro HotSpot kinase assay: TEC
# Format: biochemical
# Protocol conditions: D-compounds panel data; 1 μM ATP

Solved entries:
{"Smiles repr": "C[C@@H]1[C@H](NC(=O)c2ccc(C3CC3)nc2)CCCN1c1cnc(C(N)=O)c(Nc2ccc(OC3CCC(F)(F)CC3)cc2)n1", "IC50": "0.01 to 0.1 µM"}
{"Smiles repr": "C[C@@H]1[C@H](NC(=O)c2ccc(C3CC3)cc2)CCCN1c1cnc(C(N)=O)c(Nc2cnn(CC#N)c2)n1", "IC50": "≤ 0.01 µM"}

# evaluate next
Give the measured IC50 of CN(C)C(=O)N[C@H]1CCCN(c2cnc(C(N)=O)c(Nc3ccc(C4(C)CCN(C5CCCC5)CC4)cc3)n2)[C@@H]1CO .
> 10 µM

###

# System under test: LCK (Homo sapiens)
# Sequence (P06239 whole entry): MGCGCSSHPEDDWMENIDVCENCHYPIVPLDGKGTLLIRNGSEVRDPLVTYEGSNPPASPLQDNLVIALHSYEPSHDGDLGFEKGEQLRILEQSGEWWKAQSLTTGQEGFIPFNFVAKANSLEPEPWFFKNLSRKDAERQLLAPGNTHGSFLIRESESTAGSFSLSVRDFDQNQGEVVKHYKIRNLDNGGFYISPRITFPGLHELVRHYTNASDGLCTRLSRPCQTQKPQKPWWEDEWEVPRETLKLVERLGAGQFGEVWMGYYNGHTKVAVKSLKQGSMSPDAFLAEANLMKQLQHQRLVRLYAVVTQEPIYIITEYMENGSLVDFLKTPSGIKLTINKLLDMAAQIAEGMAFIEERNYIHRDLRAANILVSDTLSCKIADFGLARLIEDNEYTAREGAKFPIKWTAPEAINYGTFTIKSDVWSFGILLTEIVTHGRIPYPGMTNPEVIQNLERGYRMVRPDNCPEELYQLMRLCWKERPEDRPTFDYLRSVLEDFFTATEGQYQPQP
# Assay comment: Inhibition of a panel of kinases, in vitro HotSpot kinase assay: LCK
# Type: biochemical
# Protocol conditions: D-compounds panel data; 1 μM ATP; read-out: IC50 LCK
Recorded measurements of IC50, one per entry

Solved cases below.
{"Compound": "C[C@@H]1[C@H](NC(=O)N(C)C)CCCN1c1cnc(C(N)=O)c(Nc2cc(C3CCN(C4CCCC4)CC3)ns2)n1 [Example D-163]", "Observed value": "< 10 nM"}
{"Compound": "C[C@@H]1[C@H](NC(=O)c2ccc(C(C)(C)C)cc2)CCCN1c1cnc(C(N)=O)c(Nc2ccc(N3CCN(C)CC3)cc2)n1 [Example D-14]", "Observed value": "10 to 100 nM"}

Proceed to the following item.
Give the reported IC50 for CC(C)c1ccc(S(=O)(=O)N[C@@H]2CCCN(c3cnc(C(N)=O)c(Nc4cnn(C)c4)n3)[C@@H]2C)cc1 [Example D-220] (system: LCK (Homo sapiens)).
> 10000 nM

###

# System under test: LCK (Homo sapiens)
# Assay comment: Inhibition of a panel of kinases, in vitro HotSpot kinase assay: LCK
# Type: biochemical
# Protocol conditions: Table 13, A compounds; 1 μM ATP; read-out: IC50 LCK
Experimental endpoint: IC50

Worked examples, 8 compounds total:
{"Smiles repr": "C[C@@H]1[C@H](NC(=O)c2ccc(C3CC3)cc2F)CCCN1c1cnc(C(N)=O)c(Nc2ccc(CN3CCN(C)CC3)cc2)n1", "System under test": "LCK (Homo sapiens)", "IC50": "10 to 100 nM"}
{"Smiles repr": "C[C@@H]1[C@H](NC(=O)c2ccc(C3CC3)cc2F)CCCN1c1cnc(C(N)=O)c(Nc2ccc(S(=O)(=O)N3CCN(C)CC3)cc2)n1", "System under test": "LCK (Homo sapiens)", "IC50": "1000 to 10000 nM"}
{"Smiles repr": "C[C@@H]1[C@H](NC(=O)c2cc3c(n2C)CC(C)(C)C3)CCCN1c1cnc(C(N)=O)c(Nc2cnn(C)c2)n1", "System under test": "LCK (Homo sapiens)", "IC50": "100 to 1000 nM"}
{"Smiles repr": "C[C@@H]1[C@H](NC(=O)c2ccc(C(C)(C)C)cc2)CCCN1c1cnc(C(N)=O)c(Nc2ccc(N3CCN(C)CC3)cc2)n1", "System under test": "LCK (Homo sapiens)", "IC50": "> 10000 nM"}
{"Smiles repr": "C[C@@H]1[C@H](NC(=O)c2ccc(C3CC3)cc2)CCCN1c1cnc(C(N)=O)c(Nc2cnn(C)c2)n1", "System under test": "LCK (Homo sapiens)", "IC50": "100 to 1000 nM"}
{"Smiles repr": "C[C@@H]1[C@H](NC(=O)c2ccc(C3CC3)cc2F)CCCN1c1cnc(C(N)=O)c(Nc2ccc(N3CCN(C)C[C@@H]3C)cc2)n1", "System under test": "LCK (Homo sapiens)", "IC50": "10 to 100 nM"}
{"Smiles repr": "Cn1cc(Nc2nc(N3C[C@@H](NC(=O)c4ccc(C5CC5)cc4)CC(F)(F)C3)cnc2C(N)=O)cn1", "System under test": "LCK (Homo sapiens)", "IC50": "> 10000 nM"}
{"Smiles repr": "Cc1cc(Nc2nc(N3CCC[C@@H](NC(=O)N4Cc5ccccc5C4=O)C3)cnc2C(N)=O)sn1", "System under test": "LCK (Homo sapiens)", "IC50": "10 to 100 nM"}

Returns the measured IC50 for the input compound. Input: C[C@@H]1[C@H](NC(=O)c2ccc(C3CC3)cc2)CCCN1c1cnc(C(N)=O)c(Nc2cnn(C3CCN(C)CC3)c2)n1
10 to 100 nM

Next compound: C[C@@H]1[C@H](NC(=O)c2ccc(C3CC3)cc2F)CCCN1c1cnc(C(N)=O)c(Nc2ccc(S(=O)(=O)N3CCCC3)cc2)n1
> 10000 nM

Then this compound: C[C@@H]1[C@H](NC(=O)c2ccc(C3CC3)cc2F)CCCN1c1cnc(C(N)=O)c(Nc2ccc(C3(C)CCN(C4CCCC4)CC3)cc2)n1
< 10 nM

Then C[C@@H]1[C@H](NC(=O)c2ccc(C3CC3)cc2)CCCN1c1cnc(C(N)=O)c(Nc2cc(CN3CCCCC3)ns2)n1 ?
10 to 100 nM

Again, but for Cc1c(Nc2nc(N3CCC[C@@H](NC(=O)c4ccc(C5CC5)cc4)[C@H]3C)cnc2C(N)=O)cnn1C
1000 to 10000 nM

###

# System under test: TEC (Homo sapiens, UniProt P42680)
# Sequence (P42680 1-631): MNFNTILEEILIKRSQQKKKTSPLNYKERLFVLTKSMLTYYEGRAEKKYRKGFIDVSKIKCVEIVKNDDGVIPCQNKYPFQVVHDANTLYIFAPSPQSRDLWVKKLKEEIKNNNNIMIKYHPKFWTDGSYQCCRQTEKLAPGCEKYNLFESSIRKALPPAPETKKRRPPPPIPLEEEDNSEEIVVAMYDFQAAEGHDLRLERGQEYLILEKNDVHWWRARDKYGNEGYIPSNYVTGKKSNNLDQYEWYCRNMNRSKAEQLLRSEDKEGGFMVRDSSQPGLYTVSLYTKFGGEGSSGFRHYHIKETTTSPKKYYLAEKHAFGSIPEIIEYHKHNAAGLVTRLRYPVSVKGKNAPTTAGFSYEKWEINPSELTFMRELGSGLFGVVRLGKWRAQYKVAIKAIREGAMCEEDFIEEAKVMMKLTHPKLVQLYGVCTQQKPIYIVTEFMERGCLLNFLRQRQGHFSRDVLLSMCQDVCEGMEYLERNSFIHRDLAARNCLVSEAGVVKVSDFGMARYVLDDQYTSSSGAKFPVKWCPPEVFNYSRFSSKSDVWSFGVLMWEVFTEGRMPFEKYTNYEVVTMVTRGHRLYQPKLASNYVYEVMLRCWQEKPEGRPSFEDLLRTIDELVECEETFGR
# Assay comment: Inhibition of a panel of kinases, in vitro HotSpot kinase assay: TEC
# Assay type: biochemical
# Protocol conditions: Table 13, A compounds; 1 μM ATP
Experimental endpoint: IC50

Examples with answers:
{"Smiles repr": "Cc1cc(Nc2nc(N3CCC[C@@H](NC(=O)N4Cc5ccccc5C4=O)C3)cnc2C(N)=O)sn1", "System under test": "TEC (Homo sapiens, UniProt P42680)", "IC50": "10 to 100 nM"}
{"Smiles repr": "Cc1cc(Nc2nc(N3CCC[C@@H](n4ccc5cc(C6CC6)ccc5c4=O)C3)cnc2C(N)=O)sn1", "System under test": "TEC (Homo sapiens, UniProt P42680)", "IC50": "> 10000 nM"}
{"Smiles repr": "C[C@@H]1[C@H](NC(=O)c2ccc(C3CC3)cc2F)CCCN1c1cnc(C(N)=O)c(Nc2cnn(C)c2)n1", "System under test": "TEC (Homo sapiens, UniProt P42680)", "IC50": "10 to 100 nM"}
{"Smiles repr": "CN1CCC(n2cc(Nc3nc(N4CCC[C@@H](n5ccc6cc(C7CC7)ccc6c5=O)C4)cnc3C(N)=O)cn2)CC1", "System under test": "TEC (Homo sapiens, UniProt P42680)", "IC50": "10 to 100 nM"}
{"Smiles repr": "C[C@@H]1[C@H](NC(=O)c2ccc(C3CC3)cn2)CCCN1c1cnc(C(N)=O)c(Nc2ccc(N3CCN(C)CC3)cc2)n1", "System under test": "TEC (Homo sapiens, UniProt P42680)", "IC50": "10 to 100 nM"}

Fill blank: measured IC50 of the compound C[C@@H]1[C@H](NC(=O)c2ccc(C3CC3)cc2)CCCN1c1cnc(C(N)=O)c(Nc2cc(CN3CCCCC3)ns2)n1 is ____.
10 to 100 nM

Follow-up entry: C[C@@H]1[C@H](NC(=O)N(C)C)CCCN1c1cnc(C(N)=O)c(Nc2ccc(N3CCN(C)CC3)cc2)n1
100 to 1000 nM

Now consider C[C@@H]1[C@H](NC(=O)c2ccc(C3CC3)cc2F)CCCN1c1cnc(C(N)=O)c(Nc2nc3c(s2)CN(C)CC3)n1 .
100 to 1000 nM

For C[C@@H]1[C@H](NC(=O)c2ccc(C3CC3)cc2F)CCCN1c1cnc(C(N)=O)c(Nc2ccc(N3CCN(C)C[C@@H]3C)cc2)n1 then?
10 to 100 nM

Another compound: C[C@@H]1[C@H](NC(=O)c2ccc(C3CC3)cc2F)CCCN1c1cnc(C(N)=O)c(Nc2ccc(C3(C)CCN(C4CCCC4)CC3)cc2)n1
≤ 10 nM

Try this compound next: C[C@@H]1[C@H](NC(=O)c2ccc(C3CC3)cc2F)CCCN1c1cnc(C(N)=O)c(Nc2ccc(C(=O)N3CCN(C)CC3)cc2)n1
10 to 100 nM

Try this compound too: C[C@@H]1[C@H](NC(=O)N(C)C)CCCN1c1cnc(C(N)=O)c(Nc2ccc(C(=O)N3CCN(C)CC3)cc2)n1
100 to 1000 nM

Quick one: C[C@@H]1[C@H](NC(=O)c2ccc(C(C)(C)C)cc2)CCCN1c1cnc(C(N)=O)c(Nc2ccc(N3CCN(C)CC3)cc2)n1
10 to 100 nM
